- Tested on: A2780 human ovarian cancer cells
- assay_remarks: In vitro cell proliferation assay (CellTiter-Glo)
- Format: cell-based
- assay_conditions: Homo sapiens, A2780, 72 h, read-out: IC50 value
Where a name gives a salt, the structure may show the parent alone.
readout_name: IC50

The molecule listed as Cc1csc2c(OC(=O)N3CCN(C)CC3)cc3c(c12)[C@H](CCl)CN3C(=O)c1cc2cc(NC(=O)c3cc4cc(NC(=O)OC(C)(C)C)ccc4[nH]3)ccc2[nH]1 [Compd. 22] has a reported IC50 of < 0.0001 µM

Continuing:
// field: IC50; key: Cc1csc2c(OC(=O)N3CCN(C)CC3)cc3c(c12)[C@H](CCl)CN3C(=O)c1cc2cc(NC(=O)c3cc4cc(N)ccc4[nH]3)ccc2[nH]1 [compound 23, hydrochloride] ; value = < 0.05 µM
